The measurements presented in this section are drawn from patent US11452758B2.

assay: Cytotoxicity in normal cell line (MTT); type: cell-based, human; conditions: human, Hs27 fibroblast cells
Where a SMILES comes first, the peptide text is derived from it.
measured.metric: viability at 24 h, 8 µM (%)
Give the value, in units of %, as a plain number.

Enquiry: Query: viability at 24 h, 8 µM; subject: CC[C@H](C)[C@H](NC(=O)[C@H](CCCNC(=N)N)NC(=O)[C@H](CCC(N)=O)NC(=O)[C@@H](NC(=O)[C@@H](NC(=O)[C@H](CCCNC(=N)N)NC(=O)[C@H](CCCCN)NC(=O)[C@H](Cc1ccccc1)NC(=O)[C@H](CCC(=O)O)NC(=O)[C@@H](N)CCCCN)[C@@H](C)CC)C(C)C)C(=O)N[C@@H](CCCCN)C(=O)N[C@@H](CC(=O)O)C(=O)N[C@@H](Cc1ccccc1)C(=O)N[C@@H](CC(C)C)C(=O)N[C@@H](CCCNC(=N)N)C(=O)N[C@@H](CC(N)=O)C(N)=O [LL37-1, KEFKRIVQRIKDFLRN-NH2] (H-KEFKRIVQRIKDFLRN-NH2)
Return: 96
